# Ki per entry
- target or test system: SERT (Rattus norvegicus, UniProt P31652)
- Construct: from tissue; host or cells: rat brain
- Sequence (P31652 whole entry): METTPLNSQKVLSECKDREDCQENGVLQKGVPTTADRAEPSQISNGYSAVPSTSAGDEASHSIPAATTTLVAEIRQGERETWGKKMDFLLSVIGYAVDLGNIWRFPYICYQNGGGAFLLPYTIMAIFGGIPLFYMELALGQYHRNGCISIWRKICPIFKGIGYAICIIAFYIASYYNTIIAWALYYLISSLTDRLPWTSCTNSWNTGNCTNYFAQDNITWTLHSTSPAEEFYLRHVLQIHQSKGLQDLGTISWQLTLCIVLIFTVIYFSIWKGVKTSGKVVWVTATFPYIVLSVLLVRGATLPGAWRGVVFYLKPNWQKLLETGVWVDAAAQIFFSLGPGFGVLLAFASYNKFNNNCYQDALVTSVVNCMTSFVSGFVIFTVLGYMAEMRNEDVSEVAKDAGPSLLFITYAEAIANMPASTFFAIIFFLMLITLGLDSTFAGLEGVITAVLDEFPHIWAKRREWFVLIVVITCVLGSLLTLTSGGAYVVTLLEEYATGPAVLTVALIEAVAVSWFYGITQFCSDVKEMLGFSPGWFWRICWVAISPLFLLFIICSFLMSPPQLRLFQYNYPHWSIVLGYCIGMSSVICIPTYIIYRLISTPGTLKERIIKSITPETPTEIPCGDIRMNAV
- test name: SERT uptake inhibition, [3H]-5-HT, rat brain
- Format: biochemical
- applied conditions: number in parentheses within cell
observable: Ki (nM)

[[record]]
structure_notation = "COc1cccc(CN[C@@H]2CO[C@H](C(c3ccc(F)cc3)c3ccc(F)cc3)C[C@H]2O)c1"
observable = "Ki"
endpoint_result = 129

[[record]]
structure_notation = "CCNc1ccc(CN[C@@H]2CO[C@H](C(c3ccc(F)cc3)c3ccc(F)cc3)C[C@H]2O)cc1"
observable = "Ki"
endpoint_result = 320

[[record]]
structure_notation = "Cn1c(=O)oc2cc(CN[C@@H]3CO[C@H](C(c4ccc(F)cc4)c4ccc(F)cc4)C[C@H]3O)ccc21"
observable = "Ki"
endpoint_result = 26.9

[[record]]
structure_notation = "COc1ccc(CN[C@@H]2CO[C@H](C(c3ccccc3)c3ccccc3)C[C@H]2O)cc1O"
observable = "Ki"
endpoint_result = 281

[[record]]
structure_notation = "Nc1ccc(CN[C@@H]2CO[C@H](C(c3ccc(F)cc3)c3ccc(F)cc3)C[C@H]2O)cc1"
observable = "Ki"
endpoint_result = 339

[[record]]
structure_notation = "Oc1cc(O)cc(CN[C@@H]2CO[C@H](C(c3ccccc3)c3ccccc3)C[C@H]2O)c1"
observable = "Ki"
endpoint_result = 3020

[[record]]
structure_notation = "CN(C)c1ccc(CN[C@@H]2CO[C@H](C(c3ccc(F)cc3)c3ccc(F)cc3)C[C@H]2O)cc1"
observable = "Ki"
endpoint_result = 144

[[record]]
structure_notation = "O[C@@H]1C[C@@H](C(c2ccc(F)cc2)c2ccc(F)cc2)OC[C@H]1NCc1ccc2occc2c1"
observable = "Ki"
endpoint_result = 68.4

[[record]]
structure_notation = "COc1cc(O)cc(CN[C@@H]2CO[C@H](C(c3ccc(F)cc3)c3ccc(F)cc3)C[C@H]2O)c1"
observable = "Ki"
endpoint_result = 577

[[record]]
structure_notation = "c1ccc(C(c2ccccc2)[C@@H]2CC[C@H](NCc3ccc4cc[nH]c4c3)CO2)cc1"
observable = "Ki"
endpoint_result = 13.6

[[record]]
structure_notation = "O[C@@H]1C[C@@H](C(c2ccccc2)c2ccccc2)OC[C@H]1NCc1ccc2cc[nH]c2c1"
observable = "Ki"
endpoint_result = 9.6

[[record]]
structure_notation = "COc1cccc(CN[C@@H]2CO[C@H](C(c3ccccc3)c3ccccc3)C[C@H]2O)c1"
observable = "Ki"
endpoint_result = 27.2

[[record]]
structure_notation = "COc1cc(CN[C@@H]2CO[C@H](C(c3ccc(F)cc3)c3ccc(F)cc3)C[C@H]2O)ccc1O"
observable = "Ki"
endpoint_result = 107

